Entry source: patent EP4610269A1

The following compounds are shown together with reported Kd values.
Molecular target: human uPAR (uPAR-Fc) (Homo sapiens, UniProt Q03405)
Construct: comprising amino acids Leu23-Arg303 according to UniProt entry Q03405.1; purchased R&D Systems 10378-UK-100
Sequence (Q03405 23-303): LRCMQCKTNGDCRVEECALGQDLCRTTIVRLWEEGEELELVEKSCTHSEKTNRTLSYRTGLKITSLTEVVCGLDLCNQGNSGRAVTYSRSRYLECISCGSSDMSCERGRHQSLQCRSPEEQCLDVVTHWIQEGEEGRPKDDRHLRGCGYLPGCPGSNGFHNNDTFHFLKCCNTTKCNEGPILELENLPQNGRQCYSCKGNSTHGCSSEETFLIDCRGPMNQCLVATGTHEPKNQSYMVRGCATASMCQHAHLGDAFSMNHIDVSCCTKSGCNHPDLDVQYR
Assay: Surface plasmon resonance (SPR) assay, single cycle kinetics
Format: binding
Details: pKD category for uPAR SPR activity assay; uPAR-Fc on Protein A-Chip, single cycle kinetics, 25°C; read-out: pKD CAT (converted)
Where a SMILES comes first, the peptide text is derived from it. Bridges are numbered along the chain shown (N, C = ends). [ ]: non-standard residue; d: D form. The star is where a group is joined. DOTA = O=C(O)CN1CCN(CC(=O)O)CCN(CC(=O)*)CCN(CC(=O)O)CC1; Pro(cis-4-F) = O=C(O)[C@@H]1C[C@H](F)CN1; Hyp = O=C(O)[C@@H]1C[C@@H](O)CN1; Pentanoyl(4-Me) = CC(C)CCC(=O)*; Cit = NC(=O)NCCC[C@H](N)C(=O)O; Butoxycarbonyl = CCCCOC(=O)*; hSer = N[C@@H](CCO)C(=O)O; Nle = CCCC[C@H](N)C(=O)O

Reference set, count: 2
CCCCOC(=O)N[C@H]1CSSC[C@@H](C(N)=O)NC(=O)[C@H](CCO)NC(=O)[C@H]([C@@H](C)CC)NC(=O)[C@@H]2C[C@@H](O)CN2C(=O)[C@@H]2C[C@H](F)CN2C(=O)[C@H](Cc2ccccc2)NC(=O)[C@H](Cc2ccc(O)cc2)NC(=O)[C@H](CCCCNC(=O)CN2CCN(CC(=O)O)CCN(CC(=O)O)CCN(CC(=O)O)CC2)NC(=O)[C@H]([C@@H](C)O)NC1=O [UPAR-368] (Butoxycarbonyl-CTK(DOTA)YF[Pro(cis-4-F)][Hyp]I[hSer]C-NH2; disulfide 1-10)
10 to 100 nM
CCCC[C@@H]1NC(=O)[C@H](CCCNC(=N)N)NC(=O)[C@@H](NC(=O)[C@H](CC(C)C)NC(=O)[C@H](CC(=O)O)NC(C)=O)CSSC[C@@H](C(N)=O)NC(=O)[C@H](CC(C)C)NC(=O)[C@H]([C@@H](C)CC)NC(=O)[C@@H]2CCCN2C(=O)[C@@H]2CCCN2C(=O)[C@H](Cc2ccccc2)NC(=O)[C@H](Cc2ccc(O)cc2)NC1=O [UPAR-431] (Ac-DLCR[Nle]YFPPILC-NH2; disulfide 3-12)
< 1.58 nM

Kindly review the next compound as well.
Request: Output measured Kd for this item: CC[C@H](C)[C@@H]1NC(=O)[C@@H](C)NC(=O)[C@@H]2CCCN2C(=O)[C@H](Cc2ccccc2)NC(=O)[C@H](Cc2ccc(O)cc2)NC(=O)[C@H](CCCCNC(C)=O)NC(=O)[C@H](CCCNC(N)=O)NC(=O)[C@@H](NC(=O)CCC(C)C)CSSC[C@@H](C(N)=O)NC(=O)[C@H](CC(C)C)NC1=O [UPAR-413] ({Pentanoyl(4-Me)}-C[Cit]K(Ac)YFP[dA]ILC-NH2; disulfide 1-10)
Result: < 1.58 nM
